These measurements were taken from patent US10780092B2.

This listing pairs molecules with measured pEC50.
biological target: sGC α1/β1 heterodimer (Homo sapiens (Human), UniProt Q02108+Q02153); assay: Cell-based sGC functional assay (CASA assay), cGMP by HTRF; details: inflection point of cGMP production, 4P fit; CHO-K1/sGC cells; read-out: IP
Sequence (Q02108 whole entry): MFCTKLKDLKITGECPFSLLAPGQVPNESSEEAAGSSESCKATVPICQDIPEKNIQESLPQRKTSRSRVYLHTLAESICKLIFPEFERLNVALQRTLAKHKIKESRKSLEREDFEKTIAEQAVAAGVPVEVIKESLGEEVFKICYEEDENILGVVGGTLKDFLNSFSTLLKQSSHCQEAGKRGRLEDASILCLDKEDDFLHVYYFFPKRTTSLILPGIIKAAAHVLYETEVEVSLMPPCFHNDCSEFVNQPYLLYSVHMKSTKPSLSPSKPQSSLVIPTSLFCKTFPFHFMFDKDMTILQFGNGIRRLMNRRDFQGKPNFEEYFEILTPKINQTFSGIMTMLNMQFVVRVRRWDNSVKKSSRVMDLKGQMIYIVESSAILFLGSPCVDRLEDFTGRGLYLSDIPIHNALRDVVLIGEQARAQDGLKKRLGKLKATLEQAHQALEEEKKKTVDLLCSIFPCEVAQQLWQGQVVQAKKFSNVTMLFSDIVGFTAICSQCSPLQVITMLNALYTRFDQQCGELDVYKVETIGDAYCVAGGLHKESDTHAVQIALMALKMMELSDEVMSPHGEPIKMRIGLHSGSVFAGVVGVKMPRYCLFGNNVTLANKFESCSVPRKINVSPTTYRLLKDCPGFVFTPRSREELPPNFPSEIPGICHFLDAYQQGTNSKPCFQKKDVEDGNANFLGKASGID
Sequence (Q02153 whole entry): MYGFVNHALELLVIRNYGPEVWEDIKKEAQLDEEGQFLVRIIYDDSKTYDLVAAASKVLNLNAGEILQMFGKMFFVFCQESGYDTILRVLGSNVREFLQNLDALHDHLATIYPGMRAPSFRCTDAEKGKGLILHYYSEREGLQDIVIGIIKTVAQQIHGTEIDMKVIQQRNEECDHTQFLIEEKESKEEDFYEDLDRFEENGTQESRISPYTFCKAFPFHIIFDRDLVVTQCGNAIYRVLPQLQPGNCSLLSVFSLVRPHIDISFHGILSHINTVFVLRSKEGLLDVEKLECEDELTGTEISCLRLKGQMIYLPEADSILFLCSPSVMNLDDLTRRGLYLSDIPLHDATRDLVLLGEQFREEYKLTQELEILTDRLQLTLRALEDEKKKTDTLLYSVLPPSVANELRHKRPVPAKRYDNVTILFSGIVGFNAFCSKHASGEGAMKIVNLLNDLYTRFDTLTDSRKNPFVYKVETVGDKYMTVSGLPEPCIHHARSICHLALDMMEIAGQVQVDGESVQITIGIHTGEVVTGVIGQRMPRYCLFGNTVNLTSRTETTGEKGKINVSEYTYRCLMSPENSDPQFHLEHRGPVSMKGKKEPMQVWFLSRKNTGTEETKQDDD
# pEC50 = -log10(concentration in molar units)

Field: example entries. Status: answers known.
{"MOLECULE": "CC1(c2cc(O)c(Cl)cn2)C(=O)Nc2nc(-c3cn4ccnc4c(Cc4ccccc4F)n3)nc(N)c21 (stereo not shown)", "RESULT_NUMBER": 5.72}
{"MOLECULE": "CC1(c2ccc(O)cc2)C(=O)Nc2nc(-c3cn4ccnc4c(CCC4CCCCC4)n3)nc(N)c21 (stereo not shown)", "RESULT_NUMBER": 6.22}
{"MOLECULE": "CC1(c2ccc(Cl)c(O)c2)C(=O)Nc2nc(-c3cn4ccnc4c(CC4CCC(F)(F)CC4)n3)nc(N)c21 (stereo not shown)", "RESULT_NUMBER": 5.74}
{"MOLECULE": "CC1(c2cc(O)c(C#N)c(Cl)c2)C(=O)Nc2nc(-c3cn4ncnc4c(Cc4ccccc4F)n3)nc(N)c21 (stereo not shown)", "RESULT_NUMBER": 6.23}
{"MOLECULE": "CC1(c2cccc(O)c2)C(=O)Nc2nc(-c3cn4ccnc4c(CCC(F)(F)C(F)(F)F)n3)nc(N)c21 (stereo not shown)", "RESULT_NUMBER": 7.02}

Bench note: what pEC50 did CC1(c2cc(O)c(Cl)c(F)c2)C(=O)Nc2nc(-c3cn4ccnc4c(Cc4cc(F)cc(F)c4)n3)nc(N)c21 (stereo not shown) show?
6.51

What about this molecule? CCCCc1nc(-c2nc(N)c3c(n2)NC(=O)C3(C)c2ccc(O)cc2)cn2ncnc12 (stereo not shown)
7.49

###

In this section we review reported Emax values for a set of molecules.
target: sGC α1/β1 heterodimer (Homo sapiens (Human), UniProt Q02108+Q02153); assay: Cell-based sGC functional assay (CASA assay), cGMP by HTRF; conditions: CHO-K1, cGMP production as percentage of maximum of compound A (set to 100%); CHO-K1/sGC cells; read-out: % Activation
Please state the figure in %; there is no need to write the unit.

{"MOLECULE": "CC1(c2cccc(O)c2)C(=O)Nc2nc(-c3cn4ccnc4c(Cc4ccc(F)cc4)n3)nc(N3CCC(F)(F)CC3)c21 (stereo not shown)", "Emax, %": 103}
{"MOLECULE": "CC1(c2ccc(Cl)c(O)c2Cl)C(=O)Nc2nc(-c3cn4ccnc4c(CC4CCCCC4)n3)nc(N)c21 (stereo not shown)", "Emax, %": 108}
{"MOLECULE": "CC1(c2cc(O)ccn2)C(=O)Nc2nc(-c3cn4ncnc4c(CC4CCCCC4)n3)nc(N)c21 (stereo not shown)", "Emax, %": 97}
{"MOLECULE": "CC1(c2cc(O)c(Cl)cn2)C(=O)Nc2nc(-c3cn4ccnc4c(Cc4ccccc4F)n3)nc(N)c21 (stereo not shown)", "Emax, %": 136}
{"MOLECULE": "CC1(c2cc(O)c(C#N)c(F)c2)C(=O)Nc2nc(-c3cn4ccnc4c(Cc4cc(F)cc(F)c4)n3)nc(N)c21 (stereo not shown)", "Emax, %": 92}

Recorded Emax of CC1(c2cc(O)c(C(F)(F)F)cn2)C(=O)Nc2nc(-c3cn4ccnc4c(Cc4ccccc4F)n3)nc(N)c21 (stereo not shown) , please.
96

Now this one: CC1(c2ccc(Cl)c(O)c2)C(=O)Nc2nc(-c3cn4ccnc4c(Cc4ccc(Cl)cc4)n3)nc(N)c21 (stereo not shown)
100

###

molecular target: sGC α1/β1 heterodimer (Homo sapiens (Human), UniProt Q02108+Q02153); experiment: Cell-based sGC functional assay (CASA assay), cGMP by HTRF; settings: inflection point of cGMP production, 4P fit; CHO-K1/sGC cells; read-out: IP
# log10(EC50) per entry
Hi team, quick reminder: these entries are log10 of EC50 (µM).

{"MOLECULE": "CC1(c2ccc(F)c(O)c2)C(=O)Nc2nc(-c3cn4ccnc4c(CCC(F)(F)C(F)(F)F)n3)nc(N)c21 (racemic)", "log10(EC50)": -1.20}
{"MOLECULE": "CC1(c2cc(O)c(Cl)cn2)C(=O)Nc2nc(-c3cn4ccnc4c(CC4CCCCC4)n3)nc(N)c21 (stereo not shown)", "log10(EC50)": -0.17}
{"MOLECULE": "CC(C)CCc1nc(-c2nc(N)c3c(n2)NC(=O)C3(C)c2ccc(O)cc2)cn2ccnc12 (stereo not shown)", "log10(EC50)": -0.79}
{"MOLECULE": "CC1(c2ccc(O)c(F)c2)C(=O)Nc2nc(-c3cn4ncnc4c(Cc4ccc(F)cc4)n3)nc(N)c21 (stereo not shown)", "log10(EC50)": -0.23}
{"MOLECULE": "CC1(c2cccc(O)c2)C(=O)Nc2nc(-c3cn4ccnc4c(Cc4ccc(Cl)cc4)n3)nc(N)c21 (stereo not shown)", "log10(EC50)": -0.20}

Which log10(EC50) value is on record for CC1(c2ccc(O)c(Cl)c2)C(=O)Nc2nc(-c3cn4ccnc4c(CCC4CCCCC4)n3)nc(N)c21 (stereo not shown) ?
-0.19

How about CC1(c2cccc(O)c2)C(=O)Nc2nc(-c3cn4ccnc4c(Cc4cccc(F)c4)n3)nc(N)c21 (stereo not shown) ?
-0.43

###

Known Emax of a selection of compounds
target: sGC α1/β1 heterodimer (Homo sapiens (Human), UniProt Q02108+Q02153); assay: Cell-based sGC functional assay (CASA assay), cGMP by HTRF; conditions: CHO-K1, cGMP production as percentage of maximum of compound A (set to 100%); CHO-K1/sGC cells; read-out: % Activation
Kindly provide the numeric value in % only, without the unit symbol.

These recorded examples may help you get a feel for the data.
{"COMPOUND": "CC1(c2ccc(F)c(O)c2)C(=O)Nc2nc(-c3cn4ccnc4c(CCC4CCCCC4)n3)nc(N)c21 (centres unmarked)", "STUDY_SYSTEM": "sGC α1/β1 heterodimer (Homo sapiens (Human), UniProt Q02108+Q02153)", "Emax, %": 122}
{"COMPOUND": "CC(C)CCc1nc(-c2nc(N)c3c(n2)NC(=O)C3(C)c2ccc(C(F)(F)F)c(O)c2)cn2ccnc12 (centres unmarked)", "STUDY_SYSTEM": "sGC α1/β1 heterodimer (Homo sapiens (Human), UniProt Q02108+Q02153)", "Emax, %": 125}
{"COMPOUND": "Cc1cccc(Cc2nc(-c3nc(N)c4c(n3)NC(=O)C4(C)c3ccc(O)c(F)c3)cn3ccnc23)c1 (centres unmarked)", "STUDY_SYSTEM": "sGC α1/β1 heterodimer (Homo sapiens (Human), UniProt Q02108+Q02153)", "Emax, %": 118}
{"COMPOUND": "Cc1ccc(C2(C)C(=O)Nc3nc(-c4cn5ccnc5c(Cc5cccc(F)c5)n4)nc(N)c32)cc1O (centres unmarked)", "STUDY_SYSTEM": "sGC α1/β1 heterodimer (Homo sapiens (Human), UniProt Q02108+Q02153)", "Emax, %": 135}
{"COMPOUND": "CC1(c2ccc(O)c(Cl)c2)C(=O)Nc2nc(-c3cn4ccnc4c(Cc4cccc(F)c4)n3)nc(N)c21 (centres unmarked)", "STUDY_SYSTEM": "sGC α1/β1 heterodimer (Homo sapiens (Human), UniProt Q02108+Q02153)", "Emax, %": 147}

Could you share which Emax value was measured for CC1(c2cc(O)c(Cl)c(F)c2)C(=O)Nc2nc(-c3cn4ncnc4c(CC4CCCCC4)n3)nc(N)c21 (centres unmarked) ?
143

CC1(c2ccc(Cl)c(O)c2)C(=O)Nc2nc(-c3cn4ncnc4c(CCCCF)n3)nc(N)c21 (centres unmarked) ?
81

###

molecular target: sGC α1/β1 heterodimer (Homo sapiens (Human), UniProt Q02108+Q02153); experiment: Cell-based sGC functional assay (CASA assay), cGMP by HTRF; conditions: CHO-K1, cGMP production as percentage of maximum of compound A (set to 100%); CHO-K1/sGC cells; read-out: % Activation
MEASURE: Emax (%)
A number alone suffices; assume %.

Worked set:
{"COMPOUND": "CC1(c2ccc(Cl)c(O)c2)C(=O)Nc2nc(-c3cn4ncnc4c(CCC(F)(F)C(F)(F)F)n3)nc(NCC(O)C(F)(F)F)c21 (single isomer, unassigned) [Example 133-AA]", "STUDY_SYSTEM": "sGC α1/β1 heterodimer (Homo sapiens (Human), UniProt Q02108+Q02153)", "RESULT_NUMBER": 38}
{"COMPOUND": "CC1(c2cc(O)c(C(F)(F)F)cn2)C(=O)Nc2nc(-c3cn4ccnc4c(Cc4cccc(F)c4)n3)nc(N)c21 (stereo not drawn) [Example 145-B]", "STUDY_SYSTEM": "sGC α1/β1 heterodimer (Homo sapiens (Human), UniProt Q02108+Q02153)", "RESULT_NUMBER": 91}
{"COMPOUND": "CC1(c2ccc(O)c(Cl)c2)C(=O)Nc2nc(-c3cn4ccnc4c(Cc4ccc(F)cc4)n3)nc(N)c21 (stereo not drawn) [Example 60-B]", "STUDY_SYSTEM": "sGC α1/β1 heterodimer (Homo sapiens (Human), UniProt Q02108+Q02153)", "RESULT_NUMBER": 138}
{"COMPOUND": "CC1(c2ccc(Cl)c(O)c2)C(=O)Nc2nc(-c3cn4ccnc4c(CCC(F)(F)C(F)(F)F)n3)nc(N)c21 (stereo not drawn) [Example 65-A]", "STUDY_SYSTEM": "sGC α1/β1 heterodimer (Homo sapiens (Human), UniProt Q02108+Q02153)", "RESULT_NUMBER": 85}
{"COMPOUND": "CC1(c2cccc(O)c2)C(=O)Nc2nc(-c3cn4ccnc4c(CCC(F)(F)C(F)(F)F)n3)nc(N)c21 (stereo not drawn) [Example 79-B]", "STUDY_SYSTEM": "sGC α1/β1 heterodimer (Homo sapiens (Human), UniProt Q02108+Q02153)", "RESULT_NUMBER": 108}

Note: attention shifts to another entry.
// map Cc1cn2cc(-c3nc(N)c4c(n3)NC(=O)C4(C)c3ccc(Cl)c(O)c3)nc(Cc3cccc(F)c3)c2n1 (stereo not drawn) [Example 99-A] to recorded Emax (system: sGC α1/β1 heterodimer (Homo sapiens (Human), UniProt Q02108+Q02153))
97
